- subject of test: Prostaglandin G/H synthase 1 (Ovis aries)
- Sequence (P05979 whole entry): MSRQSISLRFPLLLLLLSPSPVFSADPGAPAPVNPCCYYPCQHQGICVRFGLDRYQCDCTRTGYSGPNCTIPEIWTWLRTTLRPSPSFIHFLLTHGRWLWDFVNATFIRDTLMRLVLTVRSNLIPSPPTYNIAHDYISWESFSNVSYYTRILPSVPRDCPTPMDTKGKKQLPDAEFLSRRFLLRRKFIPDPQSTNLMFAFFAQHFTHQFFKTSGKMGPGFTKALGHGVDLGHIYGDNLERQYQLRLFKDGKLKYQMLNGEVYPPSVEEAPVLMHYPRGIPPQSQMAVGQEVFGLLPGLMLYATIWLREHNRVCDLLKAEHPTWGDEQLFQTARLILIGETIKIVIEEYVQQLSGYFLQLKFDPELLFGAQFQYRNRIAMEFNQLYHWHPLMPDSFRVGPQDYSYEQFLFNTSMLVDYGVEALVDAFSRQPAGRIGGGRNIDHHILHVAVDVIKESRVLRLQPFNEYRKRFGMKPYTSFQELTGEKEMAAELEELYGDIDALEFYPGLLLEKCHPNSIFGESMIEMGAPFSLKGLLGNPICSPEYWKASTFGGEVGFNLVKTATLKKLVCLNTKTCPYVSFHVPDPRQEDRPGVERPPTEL
- experimental details: Inhibition of peroxidase activity of COX1 in heep seminal vesicle by TMPD assay
- Assay type: tissue-based
IC50 vs 4 µM: less than gives yes; not less than gives no.

Please determine if Oc1ccc(/C=C/c2cc(O)cc(O)c2)cc1 [RESVERATROL] is below 4 µM in terms of IC50.
yes

Please determine if Oc1cccc(O)c1 [RESORCINOL] is below 4 µM in terms of IC50.
yes

Please determine if Oc1cc(O)c2c(c1)O[C@@H](c1ccc(O)c(O)c1)[C@H](O)C2 [(-)-CATECHIN] is below 4 µM in terms of IC50.
no

Please determine if Oc1cc(O)c2c(c1)O[C@H](c1ccc(O)c(O)c1)[C@H](O)C2 [(-)-EPICATECHIN] is below 4 µM in terms of IC50.
yes

Please determine if Oc1cc(O)c2c(c1)O[C@@H](c1ccc(O)c(O)c1)[C@@H](O)C2 [(+)-EPICATECHIN] is below 4 µM in terms of IC50.
yes
